- test_summary: Storage stability test (total amount of impurities by HPLC after storage in thermostatic chambers)
- Type: physicochemical
- experimental_conditions: storage at 40° C., 0 month
Total amount of impurities (%): recorded values
Record the value in %, omitting the unit from your answer.

Please review the following examples before continuing.
CCc1ccc(Cc2ccc3c(c2)[C@]2(OC3)O[C@H](CO)[C@@H](O)[C@H](O)[C@H]2O)cc1 [Co-crystal with sodium acetate]    0.07
CCc1ccc(Cc2ccc3c(c2)[C@]2(OC3)O[C@H](CO)[C@@H](O)[C@H](O)[C@H]2O)cc1 [Monohydrate crystal]    0.30
CCc1ccc(Cc2ccc3c(c2)[C@]2(OC3)O[C@H](CO)[C@@H](O)[C@H](O)[C@H]2O)cc1 [Amorphous form]    0.35

Let us examine a further case.
Total amount of impurities (%) measured on CCc1ccc(Cc2ccc3c(c2)[C@]2(OC3)O[C@H](CO)[C@@H](O)[C@H](O)[C@H]2O)cc1 [Co-crystal with potassium acetate] = 0.08

###

- test_summary: Storage stability test (total amount of impurities by HPLC after storage in thermostatic chambers)
- Format: physicochemical
- experimental_conditions: storage at 25° C., 3 month
- Description: A storage stability test was carried out for monohydrate crystal and an amorphous form of the compound of Formula (XI). The monohydrate crystal of the compound of Formula (XI) was prepared according to the procedure of Example 1, Step 7. The amorphous form of the compound of Formula (XI) was obtained by the following procedure. […] The purity was determined in the following procedure. […] A total amount of impurities were calculated according to the following formula. […]
experimental_readout: Total amount of impurities (%)
The reply should consist of the numeric value with the unit placed after it.

Please review the following examples before continuing.
CCc1ccc(Cc2ccc3c(c2)[C@]2(OC3)O[C@H](CO)[C@@H](O)[C@H](O)[C@H]2O)cc1 [Amorphous form]    0.66%
CCc1ccc(Cc2ccc3c(c2)[C@]2(OC3)O[C@H](CO)[C@@H](O)[C@H](O)[C@H]2O)cc1 [Co-crystal with potassium acetate]    0.08%
CCc1ccc(Cc2ccc3c(c2)[C@]2(OC3)O[C@H](CO)[C@@H](O)[C@H](O)[C@H]2O)cc1 [Monohydrate crystal]    0.29%

Let us examine a further case.
Total amount of impurities (%) measured on CCc1ccc(Cc2ccc3c(c2)[C@]2(OC3)O[C@H](CO)[C@@H](O)[C@H](O)[C@H]2O)cc1 [Co-crystal with sodium acetate] = 0.07%

###

- test_summary: Storage stability test (total amount of impurities by HPLC after storage in thermostatic chambers)
- Assay type: physicochemical
- experimental_conditions: storage at 40° C., 3 month
experimental_readout: Total amount of impurities (%)
Record the value in %, omitting the unit from your answer.

CCc1ccc(Cc2ccc3c(c2)[C@]2(OC3)O[C@H](CO)[C@@H](O)[C@H](O)[C@H]2O)cc1 [Co-crystal with potassium acetate]    0.08
CCc1ccc(Cc2ccc3c(c2)[C@]2(OC3)O[C@H](CO)[C@@H](O)[C@H](O)[C@H]2O)cc1 [Amorphous form]    0.92
CCc1ccc(Cc2ccc3c(c2)[C@]2(OC3)O[C@H](CO)[C@@H](O)[C@H](O)[C@H]2O)cc1 [Monohydrate crystal]    0.31

Let us examine a further case.
Total amount of impurities (%) measured on CCc1ccc(Cc2ccc3c(c2)[C@]2(OC3)O[C@H](CO)[C@@H](O)[C@H](O)[C@H]2O)cc1 [Co-crystal with sodium acetate] = 0.08

###

- test_summary: Storage stability test (total amount of impurities by HPLC after storage in thermostatic chambers)
- Assay type: physicochemical
- experimental_conditions: storage at 40° C., 1 month
Total amount of impurities (%): recorded values

CCc1ccc(Cc2ccc3c(c2)[C@]2(OC3)O[C@H](CO)[C@@H](O)[C@H](O)[C@H]2O)cc1 [Amorphous form]    0.62%

Total amount of impurities (%) measured on CCc1ccc(Cc2ccc3c(c2)[C@]2(OC3)O[C@H](CO)[C@@H](O)[C@H](O)[C@H]2O)cc1 [Co-crystal with sodium acetate] = 0.07%

Total amount of impurities (%) measured on CCc1ccc(Cc2ccc3c(c2)[C@]2(OC3)O[C@H](CO)[C@@H](O)[C@H](O)[C@H]2O)cc1 [Co-crystal with potassium acetate] = 0.08%

Total amount of impurities (%) measured on CCc1ccc(Cc2ccc3c(c2)[C@]2(OC3)O[C@H](CO)[C@@H](O)[C@H](O)[C@H]2O)cc1 [Monohydrate crystal] = 0.32%

###

- test_summary: Storage stability test (total amount of impurities by HPLC after storage in thermostatic chambers)
- Assay type: physicochemical
- experimental_conditions: storage at 25° C., 0 month
Total amount of impurities (%): recorded values
Record the value in %, omitting the unit from your answer.

CCc1ccc(Cc2ccc3c(c2)[C@]2(OC3)O[C@H](CO)[C@@H](O)[C@H](O)[C@H]2O)cc1 [Monohydrate crystal]    0.30
CCc1ccc(Cc2ccc3c(c2)[C@]2(OC3)O[C@H](CO)[C@@H](O)[C@H](O)[C@H]2O)cc1 [Co-crystal with potassium acetate]    0.08
CCc1ccc(Cc2ccc3c(c2)[C@]2(OC3)O[C@H](CO)[C@@H](O)[C@H](O)[C@H]2O)cc1 [Amorphous form]    0.35

Total amount of impurities (%) measured on CCc1ccc(Cc2ccc3c(c2)[C@]2(OC3)O[C@H](CO)[C@@H](O)[C@H](O)[C@H]2O)cc1 [Co-crystal with sodium acetate] = 0.07

These measurements were taken from patent US20110306778A1.
